B1: CPXM2 (parent)
chain: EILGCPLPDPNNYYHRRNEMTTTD

- Variants of: B1
- assay_procedure: protein stability index of a GFP-peptide fusion (GPS, HEK-293T) (PSI 1-6); higher = more stable;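 further: lentivirally expressed fusions sorted by FACS into six bins by GFP to DsRed ratio, PSI derived from sequencing read proportions per bin multiplied by bin number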
- run_conditions: c terminus: a fixed tail appended
For each entry below, report its protein stability index value.
One number for each entry.

>>> assay_value("R16E")
3.94

Return reported protein stability index values for all items listed beneath this line.
1. L7V
2. P8K
3. L3G
4. G4T
5. G4Q
6. C5A
7. P8V
8. M20C

[3.31, 3.58, 4.45, 3.49, 3.5, 3.79, 3.01, 3.69]

Return reported protein stability index values for all items listed beneath this line.
1. P10T
2. Y13R
3. R17P

[3.6, 4.04, 4.15]

Return reported protein stability index values for all items listed beneath this line.
1. P6G
2. E1N
3. T22L
4. N11T
5. Y14V

2.87
3.42
2.69
3.48
3.81

Return reported protein stability index values for all items listed beneath this line.
1. D9F
2. N18V
3. P10I
4. N18H
5. E19Y
6. P6T
7. M20H

1: 2.68; 2: 2.77; 3: 3.09; 4: 3.37; 5: 2.6; 6: 3.49; 7: 3.69
